target: GGT (Equus caballus, UniProt A0A9L0SYL6); assay: Kinetics of GGT inhibition (Ki) varying donor GpNA or acceptor Gly-Gly concentration; format: biochemical, horse; conditions: varying donor substrate GpNA, Gly-Gly fixed; average of Michaelis-Menten and Lineweaver-Burk; read-out: Ki (GpNA)
Sequence (A0A9L0SYL6 entry or part of it): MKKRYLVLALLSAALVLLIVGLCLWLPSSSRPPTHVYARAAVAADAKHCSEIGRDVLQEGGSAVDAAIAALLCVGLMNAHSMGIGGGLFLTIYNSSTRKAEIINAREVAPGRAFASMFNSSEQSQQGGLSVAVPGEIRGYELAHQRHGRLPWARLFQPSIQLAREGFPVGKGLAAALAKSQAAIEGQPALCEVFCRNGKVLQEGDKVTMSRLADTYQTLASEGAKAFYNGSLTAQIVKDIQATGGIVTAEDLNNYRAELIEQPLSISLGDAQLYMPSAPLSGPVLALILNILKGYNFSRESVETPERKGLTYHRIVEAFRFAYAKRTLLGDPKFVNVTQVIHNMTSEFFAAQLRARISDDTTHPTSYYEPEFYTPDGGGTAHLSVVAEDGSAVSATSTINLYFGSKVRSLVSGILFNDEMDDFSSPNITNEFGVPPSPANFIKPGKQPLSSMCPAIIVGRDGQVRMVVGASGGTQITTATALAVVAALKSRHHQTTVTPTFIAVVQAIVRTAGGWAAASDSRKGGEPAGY
MEASURED_ATTRIBUTE: pKi
Give only the number. pKi is defined as minus log10 of concentration in molar units.

Exercise: Item NC(Cc1[nH]cnc1SSc1nc[nH]c1CC(N)C(=O)O)C(=O)O (stereo not shown) has what recorded pKi?
Solution: 5.16

###

molecular target: EqGGT (Equus caballus, UniProt A0A9L0SYL6); assay: GGT activity assay (colorimetric, GpNA donor / glycyl-glycine acceptor), IC50; type: biochemical, horse; details: concentration inducing 50% inhibition of GGT activity; 1 mM GpNA, 40 mM glycyl-glycine; ovothiol A and 5-thio as disulfide
Sequence (A0A9L0SYL6 entry or part of it): as above
MEASURED_ATTRIBUTE: IC50 (µM)
Please give a number only; it is taken to be in µM.

Exercise: Item C[N+](C)(C)C(Cc1cnc(S)[nH]1)C(=O)[O-] (stereo not drawn) [Erg, N-alpha-trimethyl-2-thiohistidine, reference compound] has what recorded IC50?
Solution: 277

###

molecular target: EqGGT (Equus caballus); experiment: GGT activity assay (colorimetric, GpNA donor / glycyl-glycine acceptor), IC50; assay type: biochemical, horse
MEASURED_ATTRIBUTE: IC50 (µM)
Please give a number only; it is taken to be in µM.

Exercise: Item [N-]=[N+]=CC(=O)CC[C@H](N)C(=O)O [DON, 6-diazo-5-oxo norleucine, reference compound] has what recorded IC50?
Solution: 250

###

molecular target: UniProt:A0A9L0SYL6; experiment: Kinetics of GGT inhibition (Ki) varying donor GpNA or acceptor Gly-Gly concentration; assay type: biochemical, horse; settings: read-out: Ki (gly-gly); varying acceptor substrate Gly-Gly, GpNA fixed; average of Michaelis-Menten and Lineweaver-Burk
MEASURED_ATTRIBUTE: Ki (µM)
Please give a number only; it is taken to be in µM.

Exercise: Item [N-]=[N+]=CC(=O)CC[C@H](N)C(=O)O [DON, 6-diazo-5-oxo norleucine, reference compound] has what recorded Ki?
Solution: 200

###

molecular target: GGT (Equus caballus); assay: Kinetics of GGT inhibition (Ki) varying donor GpNA or acceptor Gly-Gly concentration; format: biochemical, horse; details: varying acceptor substrate Gly-Gly, GpNA fixed; average of Michaelis-Menten and Lineweaver-Burk; read-out: Ki (gly-gly)
MEASURED_ATTRIBUTE: pKi
Give only the number. pKi is defined as minus log10 of concentration in molar units.

Exercise: # returns recorded pKi (system: GGT (Equus caballus)) for NC(Cc1[nH]cnc1SSc1nc[nH]c1CC(N)C(=O)O)C(=O)O (stereo not shown)
Solution: 4.76

###

Molecular target: EqGGT (Equus caballus, UniProt A0A9L0SYL6)
Test: GGT activity assay (colorimetric, GpNA donor / glycyl-glycine acceptor), IC50
Format: biochemical, horse
Settings: concentration inducing 50% inhibition of GGT activity; 1 mM GpNA, 40 mM glycyl-glycine; ovothiol A and 5-thio as disulfide; read-out: IC50
Protocol: GGT activity assay: GGT activity was determined by a colorimetric test. The analysis buffer contains 100 mM Tris-HCl pH 7.8 or PBS 1X pH 7.4. Each reaction contains 1 mM of γ-glutamyl-para-nitroanilide (GpNA) as a donor substrate and 40 mM glycyl-glycine (glygly) as an acceptor substrate. […] The formation of the product, p-nitroaniline, was continuously monitored at room temperature at 405 nm using a Bio-Rad 680 microplate reader with the Microplate Manager 5.2 software (Bio-Rad). […]
MEASURED_ATTRIBUTE: IC50
Provide a numeric answer, followed by its unit.

Exercise: Item NC(Cc1[nH]cnc1SSc1nc[nH]c1CC(N)C(=O)O)C(=O)O (stereo not shown) has what recorded IC50?
Solution: 13 µM
